Listed below: EC50 values for each entry.
# ASSAY_TARGET: rod CNG channel (CNGA1/CNGB1a) (Bos taurus, UniProt Q00194+Q28181)
# Construct: heterotetramer 3 CNGA1 : 1 CNGB1a; subunits in pGEMHE, cRNA ratio 1:4, expressed in Xenopus laevis oocytes; inside-out patches
# Sequence (Q00194 whole entry): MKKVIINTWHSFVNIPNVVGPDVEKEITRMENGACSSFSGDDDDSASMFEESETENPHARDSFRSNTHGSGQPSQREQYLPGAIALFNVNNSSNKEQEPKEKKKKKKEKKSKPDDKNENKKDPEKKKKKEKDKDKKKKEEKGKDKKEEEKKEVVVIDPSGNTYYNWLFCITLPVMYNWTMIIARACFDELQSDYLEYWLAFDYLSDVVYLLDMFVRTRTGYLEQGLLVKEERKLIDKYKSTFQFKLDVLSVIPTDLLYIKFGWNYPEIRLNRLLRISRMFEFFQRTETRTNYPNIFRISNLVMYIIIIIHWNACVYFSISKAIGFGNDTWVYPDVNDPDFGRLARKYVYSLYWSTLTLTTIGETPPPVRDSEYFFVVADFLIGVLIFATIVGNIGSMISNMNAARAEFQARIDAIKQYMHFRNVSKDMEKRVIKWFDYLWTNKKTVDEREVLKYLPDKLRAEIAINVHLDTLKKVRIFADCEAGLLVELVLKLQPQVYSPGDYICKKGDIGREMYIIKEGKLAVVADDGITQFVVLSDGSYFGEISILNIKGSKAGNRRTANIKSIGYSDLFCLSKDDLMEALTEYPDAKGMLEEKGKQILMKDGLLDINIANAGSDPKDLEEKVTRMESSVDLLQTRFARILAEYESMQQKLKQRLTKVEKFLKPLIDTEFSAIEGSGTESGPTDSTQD
# Sequence (Q28181 whole entry): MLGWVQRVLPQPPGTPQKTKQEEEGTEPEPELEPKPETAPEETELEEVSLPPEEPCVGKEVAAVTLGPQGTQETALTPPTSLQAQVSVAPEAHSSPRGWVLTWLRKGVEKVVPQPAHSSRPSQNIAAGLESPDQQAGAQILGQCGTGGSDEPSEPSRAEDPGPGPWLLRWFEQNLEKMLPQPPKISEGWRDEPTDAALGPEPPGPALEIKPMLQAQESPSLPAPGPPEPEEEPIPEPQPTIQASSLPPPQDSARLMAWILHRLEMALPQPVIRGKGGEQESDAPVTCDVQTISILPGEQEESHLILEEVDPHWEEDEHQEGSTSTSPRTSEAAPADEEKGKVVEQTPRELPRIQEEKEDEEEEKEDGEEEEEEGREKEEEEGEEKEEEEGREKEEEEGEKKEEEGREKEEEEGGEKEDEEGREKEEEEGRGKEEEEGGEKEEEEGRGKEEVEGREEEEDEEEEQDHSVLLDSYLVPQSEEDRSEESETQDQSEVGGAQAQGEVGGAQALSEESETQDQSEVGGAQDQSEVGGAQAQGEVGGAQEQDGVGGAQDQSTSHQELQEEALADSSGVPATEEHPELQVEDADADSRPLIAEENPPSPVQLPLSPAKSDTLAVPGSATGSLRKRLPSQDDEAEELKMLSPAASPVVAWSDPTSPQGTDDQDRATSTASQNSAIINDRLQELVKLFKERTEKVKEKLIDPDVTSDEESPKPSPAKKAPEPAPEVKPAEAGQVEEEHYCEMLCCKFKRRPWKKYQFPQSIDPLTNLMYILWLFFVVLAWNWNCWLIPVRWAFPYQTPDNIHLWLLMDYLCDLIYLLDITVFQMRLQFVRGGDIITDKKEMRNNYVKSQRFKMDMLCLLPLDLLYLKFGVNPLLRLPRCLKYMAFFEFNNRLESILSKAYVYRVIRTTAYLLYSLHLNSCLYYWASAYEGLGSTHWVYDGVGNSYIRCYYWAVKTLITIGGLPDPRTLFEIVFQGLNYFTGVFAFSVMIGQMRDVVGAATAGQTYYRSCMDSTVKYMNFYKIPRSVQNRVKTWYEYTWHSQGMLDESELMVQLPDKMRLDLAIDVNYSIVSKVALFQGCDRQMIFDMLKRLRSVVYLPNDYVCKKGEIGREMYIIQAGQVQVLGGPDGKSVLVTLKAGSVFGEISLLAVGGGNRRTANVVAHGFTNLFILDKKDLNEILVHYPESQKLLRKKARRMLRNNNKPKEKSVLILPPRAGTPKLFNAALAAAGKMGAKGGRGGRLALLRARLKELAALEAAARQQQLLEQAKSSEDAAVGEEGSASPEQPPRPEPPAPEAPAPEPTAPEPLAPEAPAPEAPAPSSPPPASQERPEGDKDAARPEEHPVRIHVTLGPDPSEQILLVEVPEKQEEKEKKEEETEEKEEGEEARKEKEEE
# TEST: inside-out patch clamp, Xenopus oocytes, Hill fit
OBSERVABLE: EC50 (µM)

| COMPOUND_STRUCTURE | TEST_VALUE |
| --- | --- |
| Nc1nc2c(nc(Sc3ccc(Cl)cc3)n2[C@@H]2O[C@@H]3CO[P@](O)(=S)O[C@H]3[C@H]2O)c(=O)[nH]1 | 42.8 |
| Nc1nc2c(nc(Br)n2[C@@H]2O[C@@H]3COP(=O)(O)O[C@H]3[C@H]2O)c(=O)[nH]1 | 6.18 |
| Nc1nc(=O)c2nc(Sc3ccc(Cl)cc3)n([C@@H]3O[C@@H]4COP(=O)(O)O[C@H]4[C@H]3O)c2[nH]1 | 0.77 |

====

# ASSAY_TARGET: cone CNG channel (CNGA3/CNGB3) (Homo sapiens, UniProt Q16281+Q9NQW8)
# Construct: heterotetramer 3 CNGA3 : 1 CNGB3; subunits in pGEMHE, cRNA ratio 1:2.5, expressed in Xenopus laevis oocytes; inside-out patches
# TEST: inside-out patch clamp, Xenopus oocytes, Hill fit
# Format: cell-based
# CONDITION_DESCRIPTION: channel activation (agonist), +100 mV, pH 7.4, room temperature
pEC50: −log10 of the molar value.

| COMPOUND_STRUCTURE | pEC50 |
| --- | --- |
| Nc1nc2c(nc(Br)n2[C@@H]2O[C@@H]3COP(=O)(O)O[C@H]3[C@H]2O)c(=O)[nH]1 | 5.98 |

====

Item-by-item account of EC50
# ASSAY_TARGET: cone CNG channel (CNGA3/CNGB3) (Homo sapiens, UniProt Q16281+Q9NQW8)
# Construct: heterotetramer 3 CNGA3 : 1 CNGB3; subunits in pGEMHE, cRNA ratio 1:2.5, expressed in Xenopus laevis oocytes; inside-out patches
# Sequence (Q16281 1-694): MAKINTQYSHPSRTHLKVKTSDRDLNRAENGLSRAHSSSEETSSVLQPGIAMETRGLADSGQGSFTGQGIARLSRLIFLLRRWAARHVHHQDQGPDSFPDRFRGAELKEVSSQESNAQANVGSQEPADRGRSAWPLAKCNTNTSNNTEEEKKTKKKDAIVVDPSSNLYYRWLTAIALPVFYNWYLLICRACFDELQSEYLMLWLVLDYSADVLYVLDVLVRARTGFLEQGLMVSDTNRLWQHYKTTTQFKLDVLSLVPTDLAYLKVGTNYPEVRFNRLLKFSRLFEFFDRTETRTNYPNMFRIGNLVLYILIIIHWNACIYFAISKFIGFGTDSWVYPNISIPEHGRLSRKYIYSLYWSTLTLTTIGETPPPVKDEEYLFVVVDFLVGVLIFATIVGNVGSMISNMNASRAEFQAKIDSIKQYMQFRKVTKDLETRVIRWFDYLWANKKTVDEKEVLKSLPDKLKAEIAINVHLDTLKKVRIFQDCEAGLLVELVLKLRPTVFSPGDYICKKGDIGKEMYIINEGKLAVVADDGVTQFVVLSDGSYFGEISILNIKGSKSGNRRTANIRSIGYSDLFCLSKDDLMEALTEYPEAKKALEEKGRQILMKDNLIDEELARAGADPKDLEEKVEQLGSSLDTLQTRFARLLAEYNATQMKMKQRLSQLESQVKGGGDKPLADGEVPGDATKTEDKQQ
# Sequence (Q9NQW8 1-809): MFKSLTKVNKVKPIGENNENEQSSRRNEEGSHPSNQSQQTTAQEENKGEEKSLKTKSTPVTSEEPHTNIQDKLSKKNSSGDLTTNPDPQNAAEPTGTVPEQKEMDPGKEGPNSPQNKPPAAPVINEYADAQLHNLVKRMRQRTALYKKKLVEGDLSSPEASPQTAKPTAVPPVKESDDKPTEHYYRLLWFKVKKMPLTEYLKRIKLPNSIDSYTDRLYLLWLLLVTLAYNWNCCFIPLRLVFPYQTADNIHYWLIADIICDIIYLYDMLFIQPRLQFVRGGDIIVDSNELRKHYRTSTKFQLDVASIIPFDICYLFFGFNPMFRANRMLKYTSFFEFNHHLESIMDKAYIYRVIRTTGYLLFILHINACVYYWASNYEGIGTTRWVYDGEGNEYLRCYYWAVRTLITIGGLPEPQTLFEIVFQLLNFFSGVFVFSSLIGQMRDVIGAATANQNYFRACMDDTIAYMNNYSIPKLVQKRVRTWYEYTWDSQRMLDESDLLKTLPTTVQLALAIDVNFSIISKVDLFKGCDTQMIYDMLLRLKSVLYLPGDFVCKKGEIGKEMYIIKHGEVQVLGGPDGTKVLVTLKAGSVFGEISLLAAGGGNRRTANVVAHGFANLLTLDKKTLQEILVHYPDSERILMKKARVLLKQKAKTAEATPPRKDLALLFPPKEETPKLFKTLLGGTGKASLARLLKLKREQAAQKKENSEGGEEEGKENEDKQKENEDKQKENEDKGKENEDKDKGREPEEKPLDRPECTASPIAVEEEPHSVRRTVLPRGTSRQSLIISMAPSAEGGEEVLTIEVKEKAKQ
# TEST: inside-out patch clamp, Xenopus oocytes, Hill fit
# Type: cell-based
OBSERVABLE: EC50 (µM)

| COMPOUND_STRUCTURE | TEST_VALUE |
| --- | --- |
| Nc1nc2c(ncn2[C@@H]2O[C@@H]3COP(=O)(O)O[C@H]3[C@H]2O)c(=O)[nH]1 | 18.7 |
| Nc1nc2c(nc(Sc3ccc(Cl)cc3)n2[C@@H]2O[C@@H]3CO[P@](O)(=S)O[C@H]3[C@H]2O)c(=O)[nH]1 | 131 |
| Nc1nc2c(ncn2[C@@H]2O[C@@H]3CO[P@](O)(=S)O[C@H]3[C@H]2O)c(=O)[nH]1 | 2.88 |
| Nc1nc(=O)c2nc(Sc3ccc(Cl)cc3)n([C@@H]3O[C@@H]4COP(=O)(O)O[C@H]4[C@H]3O)c2[nH]1 | 0.09 |
